Assay: MSCR test, percentage elastic recovery
Type: physicochemical
Settings: bitumen 20/30 + 5% compound; 3.2 kPa
Outcome measure: MSCR % Rec. (3.2 kPa) (%)
Answers are plain numbers, in %.

Sample answers from the record:
>>> result_number("CC(C)CCCCCCOC(=O)c1ccccc1C(=O)OCCCCCCC(C)C [Palatinol ® DINP, diisononyl phthalate]")
1
>>> result_number("CC(COCC1CO1)(COCC1CO1)c1ccccc1 (stereo not drawn)")
1
>>> result_number("CCCCCCCCCCCCN1CCCC1=O [N-Dodecyl pyrrolidone]")
0
>>> result_number("CC(C)CCCCCCOC(=O)C1CCCCC1C(=O)OCCCCCCC(C)C (stereo not drawn) [Hexamoll ® DINCH, diisononyl cyclohexane-1,2-dicarboxylate]")
1
>>> result_number("CCCCCCCCCCCCc1ccc(S(=O)(=O)O)cc1 [Dodecylbenzene sulfonic acid]")
21

Please find the next compound below.
Can you look up the measured MSCR % Rec. (3.2 kPa) of CC(C)(COCC1CO1)COCC1CO1 (stereo not drawn) [Neopentylglycol bis glycidylether] for me?
2

====

Assay: MSCR test, percentage elastic recovery
Assay type: physicochemical
Settings: bitumen 20/30 + 5% compound; 0.1 kPa
Is MSCR % Rec. (0.1 kPa) at least 10%? Then y. If not, n.

>>> label("CC(C)CCCCCCOC(=O)c1ccccc1C(=O)OCCCCCCC(C)C [Palatinol ® DINP, diisononyl phthalate]")
"n"

Identify whether the reported MSCR % Rec. (0.1 kPa) of the following molecule is 10% or greater: CC(C)(COCC1CO1)COCC1CO1 (stereo not drawn)
y

Identify whether the reported MSCR % Rec. (0.1 kPa) of the following molecule is 10% or greater: `CCCCCCCCCCCCc1ccc(S(=O)(=O)O)cc1`
y

Identify whether the reported MSCR % Rec. (0.1 kPa) of the following molecule is 10% or greater: CC(COCC1CO1)(COCC1CO1)c1ccccc1 (stereo not drawn)
n

Identify whether the reported MSCR % Rec. (0.1 kPa) of the following molecule is 10% or greater: `CCCCCCCCCCCCN1CCCC1=O`
n

====

Assignment: determine reported η(135° C.) [mPas] for the given compounds.
Conditions: bitumen 20/30 + 5% compound
Give bare numbers, in mPas.

Sample answers from the record:
>>> result_number("CCCCCCCCCCCCN1CCCC1=O [N-Dodecyl pyrrolidone]")
800
>>> result_number("CC(C)CCCCCCOC(=O)C1CCCCC1C(=O)OCCCCCCC(C)C (stereo not drawn) [Hexamoll ® DINCH, diisononyl cyclohexane-1,2-dicarboxylate]")
950
>>> result_number("CC(C)CCCCCCOC(=O)c1ccccc1C(=O)OCCCCCCC(C)C [Palatinol ® DINP, diisononyl phthalate]")
950

Please find the next compound below.
Can you look up the measured η(135° C.) [mPas] of CC(COCC1CO1)(COCC1CO1)c1ccccc1 (stereo not drawn) for me?
900

====

Assignment: determine reported SP [° C.] (softening point) for the given compounds.
Assay: Softening point ring & ball of rejuvenated bitumen
Settings: bitumen 20/30 rejuvenated with 5% of the compound, 180° C., 30 minutes
Give bare numbers, in °C.

Hey, can you go through the list below and give me SP [° C.] (softening point) for every item?
1. CC(C)CCCCCCOC(=O)c1ccccc1C(=O)OCCCCCCC(C)C [Palatinol ® DINP, diisononyl phthalate]
2. CCCCCCCCCCCCN1CCCC1=O
3. CC(COCC1CO1)(COCC1CO1)c1ccccc1 (stereo not drawn)
4. CCCCCCCCCCCCc1ccc(S(=O)(=O)O)cc1
5. CC(C)CCCCCCOC(=O)C1CCCCC1C(=O)OCCCCCCC(C)C (stereo not drawn) [Hexamoll ® DINCH, diisononyl cyclohexane-1,2-dicarboxylate]
6. CC(C)(COCC1CO1)COCC1CO1 (stereo not drawn)

52.0
47.0
52.0
64.0
52.0
52.0
